- Assay details: Flux ratio of permeability from apical to basolateral to basolateral to apical side in pig LLC cells expressing MDR1 after 2 hrs
- Type: ADME, cell-based, Sus scrofa
Assay readout: Ratio
Lab note: jot the number down without any unit.

COc1nc(NC(=O)[C@@H]2C[C@@]2(COc2cnc(C)nc2C)c2cccc(F)c2)ccc1F    0.98
COc1cc(NC(=O)[C@@H]2C[C@@]2(COc2cnc(C)nc2C)c2cccc(F)c2)ncc1F    2.45
COCc1nc(C)ncc1OC[C@@]1(c2cccc(F)c2)C[C@H]1C(=O)Nc1ccc(F)cn1    2.61
Cc1ncc(OC[C@@]2(c3cccc(F)c3)C[C@H]2C(=O)Nc2ccc(C#N)cn2)c(C)n1    1.92
COc1ccc([C@]2(COc3cnc(C)nc3C)C[C@H]2C(=O)Nc2ccc(F)cn2)cc1F    1.24

The record that follows has no Ratio shown yet.
**Query** So what's the measured Ratio for this one? COCc1nc(C)ncc1OC[C@@]1(c2ccccc2)C[C@H]1C(=O)Nc1ccc(F)cn1
**Result** 1.97
